Kindly state TGI for each of the entries shown.
Tested on: M14 melanoma
Assay: NCI tumour cell line growth inhibition, 48 h
Give the value, in units of µM, as a plain number.

Please fill in: TGI reported for `C=C1C(=O)O[C@H]2[C@H]1CC/C(COC(=O)NCCc1cccc(OC)c1)=C\CC[C@@]1(C)O[C@@H]21` = 2.92

Please fill in: TGI reported for `O=C(/C=C\n1cnc(-c2cc(C(F)(F)F)cc(C(F)(F)F)c2)n1)N1CC(F)(F)C1` = 6.57

Please fill in: TGI reported for `O=C([CH-]C(=O)c1ccccc1)c1ccccc1.O=C([CH-]C(=O)c1ccccc1)c1ccccc1.O=C([CH-]C(=O)c1ccccc1)c1ccccc1.[Cl-].[Zr+4]` = 39

Please fill in: TGI reported for `CCOc1ccc(N=Cc2ccnc3ccccc23)cc1` = 80

* * *

Test system: UACC-62 melanoma
Experiment: NCI tumour cell line growth inhibition, 48 h
measured-quantity: TGI (µM)
Give the value, in units of µM, as a plain number.

Reported UACC-62 melanoma TGI for item CC(CC[C@@]1(O)OC2C[C@H]3[C@@H]4CC[C@H]5CC(OC6OC(CO)C(OC7OC(CO)C(O)C(OC8OCC(O)C(O)C8O)C7OC7OC(CO)C(O)C(O)C7O)C(O)C6O)[C@H](O)CC5(C)[C@H]4CCC3(C)C2[C@@H]1C)COC1OC(CO)C(O)C(O)C1O (stereo not given in full) was 45.6

Reported UACC-62 melanoma TGI for item `CCC[CH2][Sn]([CH2]CCC)([O]C(=O)c1cccc(F)c1F)[O]C(=O)c1cccc(F)c1F` was 2.46

Reported UACC-62 melanoma TGI for item `COc1ccc(-c2n[nH]nc2-c2cc(OC)c3c(c2)OCO3)cc1` was 49.2

Reported UACC-62 melanoma TGI for item `Cc1ccc(O)c(NC2=C(Cl)C(=O)N(Cc3ccccc3)C2=O)c1` was 36.8

* * *

Kindly state TGI for each of the entries shown.
System: DMS 114 small cell lung
Test: NCI tumour cell line growth inhibition, 48 h

Please fill in: TGI reported for `CC1(C)C(=O)C(=Cc2ccco2)C1=O` = > 100 µM

Please fill in: TGI reported for `COc1ccc(/C(Cl)=C(\C=O)c2ccc(Cl)cc2)cc1OC` = 59.5 µM

Please fill in: TGI reported for `CC1=C(C(=O)Nc2ccccc2)C(c2cc(Cl)cc(Cl)c2)C(C(=O)Nc2ccccc2)=C(C)N1` = 18.1 µM

Please fill in: TGI reported for O=c1[nH]c(=O)n(C2CC(O)C(CO)O2)cc1COCC(F)(F)F (stereo not drawn) = > 100 µM

Please fill in: TGI reported for `CC(C)C(=S)N(C)O` = 19.3 µM

Please fill in: TGI reported for `C/C(O)=C(\N=O)C(=O)NCc1ccccc1` = > 100 µM

Please fill in: TGI reported for CC(=O)OC1C(O[C@H]2CC[C@]34O[C@]35CC[C@]3(C)C(C6(C)CC[C@@H](C(C)(C)O)O6)[C@@H](O)CC3(C)[C@@H]5CC(OC3OC(CO)C(O)C(O)C3O)C4C2(C)C)OCC(O)C1O (stereo partly drawn) = > 100 µM

Please fill in: TGI reported for `CC(=O)NC1=C(N)C(=O)c2ccccc2C1=O` = 28.1 µM

Please fill in: TGI reported for `CC[n+]1c(/C=C/c2ccc(N(CCCl)CCCl)cc2)ccc2cc(I)ccc21` = > 100 µM

Please fill in: TGI reported for `COc1cccc2nc3c(C(=O)NCCN(C)C)cccc3nc12` = 21 µM

Please fill in: TGI reported for `O=C(NCc1ccc2ccc3cccnc3c2n1)c1ccc[n+](Cc2ccccc2)c1` = > 100 µM

Please fill in: TGI reported for `CCn1c(CSc2nc(-c3ccccc3)c(-c3ccccc3)[nH]2)n[nH]c1=S` = > 100 µM

Please fill in: TGI reported for `O=C(NC(=O)c1cn(CCN2CCN(C(=O)NCCCCCCNC(=O)N3CCN(CCn4cc(C(=O)NC(=O)OCc5ccccc5)c(=O)[nH]c4=O)CC3)CC2)c(=O)[nH]c1=O)OCc1ccccc1` = > 100 µM

Data origin: PubChem BioAssay (NCI)
